These measurements were taken from patent US20250179103A1.

Target: Recombinant STAT3 protein (STAT3(G127-I722)) (Homo sapiens)
Construct: Recombinant STAT3 protein (STAT3(G127-I722))
Sequence (P40763 127-722): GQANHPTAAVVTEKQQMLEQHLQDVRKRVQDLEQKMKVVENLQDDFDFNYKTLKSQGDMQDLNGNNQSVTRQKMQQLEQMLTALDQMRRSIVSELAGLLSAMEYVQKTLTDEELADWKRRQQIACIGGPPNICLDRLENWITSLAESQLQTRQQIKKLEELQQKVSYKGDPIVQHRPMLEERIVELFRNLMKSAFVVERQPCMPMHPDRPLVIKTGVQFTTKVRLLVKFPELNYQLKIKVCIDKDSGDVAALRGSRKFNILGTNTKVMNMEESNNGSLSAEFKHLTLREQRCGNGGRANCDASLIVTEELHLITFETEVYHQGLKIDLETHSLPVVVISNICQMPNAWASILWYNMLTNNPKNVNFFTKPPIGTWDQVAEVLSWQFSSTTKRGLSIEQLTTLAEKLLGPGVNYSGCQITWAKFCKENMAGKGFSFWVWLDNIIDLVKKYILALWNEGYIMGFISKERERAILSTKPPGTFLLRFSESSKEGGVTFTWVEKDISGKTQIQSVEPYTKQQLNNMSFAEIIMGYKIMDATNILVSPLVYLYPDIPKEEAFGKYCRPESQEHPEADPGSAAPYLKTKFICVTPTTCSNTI
Assay: STAT3 Fluorescence Polarization (FP) Assay
Conditions: STAT3(G127-I722) 25 nM, probe 5-FAM-GpYLPQTV-NH2 2 nM, 45-minute incubation
pIC50: −log10 of the molar value.
Reported pIC50 is given for each of the following compounds.

CC(=O)N1CC(N(C)C(=O)[C@@H]2CC[C@@H]3CCN(C(C)=O)C[C@H](NC(=O)c4cc5cc(C(F)(F)P(=O)(O)O)ccc5s4)C(=O)N32)C1 [Compound 171] ... 5.00 to 6.00

Please list pIC50 recorded for the compound CC(=O)N1CC[C@H]2CC[C@@H](C(=O)N3CCCC3Cc3ccccc3F)N2C(=O)[C@@H](NC(=O)c2cc3cc(C(F)(F)P(=O)(O)O)ccc3[nH]2)C1 (some centres unmarked) [Compound 133]
5.00 to 6.00

Determine from records and report pIC50 for CC(=O)N1CC[C@H]2CC[C@@H](C(=O)N(C)c3ccc(C(C)(C)C)cc3)N2C(=O)[C@@H](NC(=O)c2ccc3ccc(C(F)(F)P(=O)(O)O)cc3c2)C1 [Compound 117]
< 5.00

Fill in reported pIC50 for this entry: O=C(N[C@H]1CN(C(=O)c2ncn3c2CCCC3)CC[C@H]2CC[C@@H](C(=O)N3CCOCC3)N2C1=O)c1ccc2ccc(C(F)P(=O)(O)O)cc2c1 (some centres unmarked) [Compound 364]
< 5.00

Give recorded pIC50. CC(=O)N1CC[C@H]2CC[C@@H](C(=O)N(C)CC(C)(C)C#N)N2C(=O)[C@@H](NC(=O)c2cc3cc(C(F)(F)P(=O)(O)O)ccc3s2)C1 [Compound 92]
5.00 to 6.00

Give pIC50 for CCC(=O)NCCCN(C)C(=O)[C@@H]1CC[C@@H]2CCN(C(C)=O)C[C@H](NC(=O)/C=C/c3ccc(C(F)(F)P(=O)(O)O)cc3)C(=O)N21 [Compound 26]
< 5.00

Please give measured pIC50 of the following entry: CC(=O)N1CC[C@H]2CC[C@@H](C(=O)N3CCC[C@@H](c4ccccc4)C3)N2C(=O)[C@@H](NC(=O)c2cc3cc(C(F)(F)P(=O)(O)O)ccc3[nH]2)C1 [Compound 107]
5.00 to 6.00
